# experimentalTarget: Prostaglandin E2 receptor EP2 subtype (Homo sapiens, UniProt P43116)
# Sequence (P43116 whole entry): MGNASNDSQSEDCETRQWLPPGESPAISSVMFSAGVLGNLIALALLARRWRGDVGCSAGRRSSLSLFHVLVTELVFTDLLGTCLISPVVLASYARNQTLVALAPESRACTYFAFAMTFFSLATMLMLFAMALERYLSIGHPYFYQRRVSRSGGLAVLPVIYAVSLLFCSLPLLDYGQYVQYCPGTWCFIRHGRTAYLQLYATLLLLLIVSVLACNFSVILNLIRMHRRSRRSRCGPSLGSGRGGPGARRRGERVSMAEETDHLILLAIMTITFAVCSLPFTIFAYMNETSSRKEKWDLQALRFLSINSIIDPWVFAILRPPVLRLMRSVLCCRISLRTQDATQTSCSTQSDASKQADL
# assayProtocol: cAMP Assay: A 384-well drug plate was prepared to contain test compounds, PGE2 and cAMP in 16 serial dilutions in triplicate, using a Biomek station. HEK-EBNA cells expressing a target PG receptor subtype (EP2 or EP4) were suspended in a stimulation buffer (HBSS, 0.1% BSA, 0.5 mM IBMX and 5 mM HEPES, pH 7.4) in a density of 10^4 cells/5 μl. The reaction was initiated by mixing 5 μL drug dilutions with 5 μl of HEK-EBNA cells in a well, carried out for 30 min at room temperature, and followed by the addition of 5 μl anti-cAMP acceptor beads in the control buffer with Tween-20 (25 mM NaCl, 0.03% Tween-20, 5 mM HEPES, pH7.4). After 30 min in the dark at room temperature, the mixtures were incubated with 15 μl biotinylated-cAMP/strpavidin donor beads in Lysis/Detection buffer (0.1% BSA, 0.3% Tween-20 and 5 mM HEPES, pH7.4) for 45 min at the room temperature. Fluorescence changes were read using a Fusion-alpha HT microplate reader.
readoutLabel: pEC50
Kindly note that pEC50 refers to -log10 of the concentration in mol/L and answer with the value alone.

[Q] Item under review: O=C(O)c1ccc(CC[C@H]2C(=O)CC[C@@H]2/C=C/C(O)Cc2cccc(Br)c2)cc1 (single isomer, unassigned) . Reported pEC50?
[A] 8.10
